# Tested on: RXF 393 renal
# Procedure text: NCI tumour cell line growth inhibition, 48 h
Readout: TGI (µM)
Write down the numeric answer in µM and omit the unit.

[in] Read off the recorded TGI for Cc1cc2nc3c4cc(Cl)ccc4n(CCN(C)C)c3nc2cc1C
[out] 3.32

[in] Read off the recorded TGI for COc1cc2c(cc1OCCCCCOc1cc3c(cc1OC)C(=O)N1CCC[C@H]1C(=O)N3)N=C[C@@H]1CCCN1C2=O
[out] 0.413

[in] Read off the recorded TGI for COC1(C(=O)N2Cc3nc(Cl)nc(N[C@H](C)c4cc(N)cc(C(F)(F)F)c4)c3C2)CCOCC1
[out] 43.6

[in] Read off the recorded TGI for [N-]=[N+]=Nc1c(Cl)c(=O)n(-c2ccccc2)c2ccccc12
[out] 30.1

[in] Read off the recorded TGI for Cc1cc([C@@H](C)Nc2ccccc2C(=O)O)c2nc(N3CCOCC3)cc(=O)n2c1
[out] 1.33

[in] Read off the recorded TGI for O=C(Nc1cccc(-n2ccc3c(NC(=O)c4ccccc4)nccc32)c1)c1cccc(C(F)(F)F)c1
[out] 0.0442

[in] Read off the recorded TGI for COC(=O)C(c1[nH]nc2ccccc12)C(C(=O)OC)c1[nH]nc2ccccc12 (stereo unspecified)
[out] 66.3

[in] Read off the recorded TGI for N#Cc1c(N)[nH]c(=S)c(C#N)c1-c1cccc(Cl)c1
[out] 46.6

[in] Read off the recorded TGI for NC(N)=N/N=C(/c1ccccc1)c1ccc(F)cc1
[out] 3.54

[in] Read off the recorded TGI for CC(=O)[CH-]C(=O)c1ccccc1.CC(=O)[CH-]C(=O)c1ccccc1.CCCCCCCCCCCCCCCCCC(=O)[O-].CCCCCCCCCCCCCCCCCC(=O)[O-].[Ti+4]
[out] 33.9

[in] Read off the recorded TGI for CC(=O)c1ccc(Nc2cc(-c3ccccc3)nc3c(O)cccc23)cc1
[out] 60.3

[in] Read off the recorded TGI for O=C(O)c1ccc(NC(c2ccccc2)c2ccc3cccnc3c2O)cc1 (stereo unspecified)
[out] 28.8

[in] Read off the recorded TGI for CC(CO)(CO)N=Cc1cc(I)cc(I)c1O
[out] 26.5

[in] Read off the recorded TGI for COC(=O)C(=O)CC(=O)CCn1ncc(Cl)c(Cl)c1=O
[out] 33.9

[in] Read off the recorded TGI for CCN1CCN(c2nc(NCCCNc3ccnc4cc(Cl)ccc34)c3ccccc3n2)CC1
[out] 3.29

[in] Read off the recorded TGI for CCCCCCCCCCCCCCCC(=O)NCC(COP(=O)([O-])OCC[N+](C)(C)C)OCC (stereo unspecified)
[out] 5.3

[in] Read off the recorded TGI for N#CC1=C(N)OC2=C(CSc3ccccc32)C1c1ccc(Br)cc1 (stereo unspecified)
[out] 16.3

[in] Read off the recorded TGI for c1cc(-c2cnc(-c3ccc4c(c3)CCCO4)o2)ccn1
[out] 43.7

[in] Read off the recorded TGI for Cc1ccc(-c2cc(N)n(-c3nc4c([nH]3)c(=O)n(C)c(=O)n4C)n2)cc1
[out] 81.1

[in] Read off the recorded TGI for COc1ccc(-c2nn(-c3cccc(Cl)c3)cc2C2CC(c3ccccc3)=NN2C(C)=O)cc1 (stereo unspecified)
[out] 30.8

[in] Read off the recorded TGI for Cc1cn(C2C=CC(COP(=O)(OCC3=CC(=O)c4ccccc4C3=O)N(C)CCCCCl)O2)c(=O)[nH]c1=O (stereo unspecified)
[out] 15.8

[in] Read off the recorded TGI for CCn1cc(C(c2ccc(Cl)cc2)n2ccnc2)c2cc(Br)ccc21 (stereo unspecified)
[out] 29.9

[in] Read off the recorded TGI for CC(C)(C)c1cc(O)c(O)c(C(C)(C)C)c1
[out] 13.5

* * *

Would you mind telling me the reported GI50 of each entry?
# System: SW-620 colon
# Procedure text: NCI tumour cell line growth inhibition, 48 h

[in] Read off the recorded GI50 for CC(C)(C)c1cc(O)c(O)c(C(C)(C)C)c1
[out] 1.8 µM

[in] Read off the recorded GI50 for CN1CCN(Cc2ccc(C(=O)Nc3cncc(C#Cc4cnc(N)c5ccccc45)c3)cc2C(F)(F)F)CC1
[out] 1.78 µM

[in] Read off the recorded GI50 for N#Cc1c(NC(=O)c2cccc(C(F)(F)F)c2)sc2c1CCC(=O)C2
[out] 0.3 µM

[in] Read off the recorded GI50 for O=[Se]([O-])c1ccccc1.O=[Se]([O-])c1ccccc1.[OH3+].[OH3+].[Pt+2]
[out] 5.24 µM

[in] Read off the recorded GI50 for Cc1cc([C@@H](C)Nc2ccccc2C(=O)O)c2nc(N3CCOCC3)cc(=O)n2c1
[out] > 10 µM

[in] Read off the recorded GI50 for C=CC(=O)N[C@H]1C=C(C)c2c(-c3cnc4ccccc4c3)c3c(N)ncnc3n2C1
[out] 23.8 µM

[in] Read off the recorded GI50 for CCn1c(-c2nonc2N)nc2c(C#CCN)ncc(OCCCN)c21
[out] > 25 µM

[in] Read off the recorded GI50 for COc1cc(C(=O)NC2c3ccccc3-c3ccccc32)c(N)cc1OCc1ccccc1
[out] 66.4 µM

[in] Read off the recorded GI50 for CN1CCN(CC#Cc2cccc(C(=O)c3cnn(-c4ccc(F)cc4)c3N)c2)CC1
[out] > 25 µM

[in] Read off the recorded GI50 for N#Cc1c(-c2cccs2)c2c(=S)[nH]c(=S)[nH]c2[nH]c1=S
[out] 32.8 µM

[in] Read off the recorded GI50 for COc1ccc(-c2nn(-c3cccc(Cl)c3)cc2C2CC(c3ccccc3)=NN2C(C)=O)cc1 (stereo unspecified)
[out] > 100 µM

* * *

# Test system: HCT-116 colon
# Procedure text: NCI tumour cell line growth inhibition, 48 h; in the data active = GI50 below about 0.43 µM; inactive = the rest
Reply using exactly one outcome from active, inactive

[in] // outcome(item) with item = COc1ccc(C(=S)N2CCN(c3cccc(Cl)c3)CC2)cc1
[out] inactive

[in] // outcome(item) with item = CN1CCN(CC#Cc2cccc(C(=O)c3cnn(-c4ccc(F)cc4)c3N)c2)CC1
[out] inactive

[in] // outcome(item) with item = CCc1c2c(nc3cc4c(cc13)OCO4)-c1cc3c(c(=O)n1C2)COC(=O)[C@]3(O)CC
[out] inactive

[in] // outcome(item) with item = Cc1ccn2c3c(c(C(=O)O)c2c1)C(=O)c1ccccc1C3=O
[out] inactive

[in] // outcome(item) with item = CCCCCCCCCC[C@@H](O)[C@H]1CC[C@H]([C@H]2CC[C@H]([C@H](O)CCCCCCCCCC[C@@H]3CC(CC(C)=O)C(=O)O3)O2)O1 (stereo partly drawn)
[out] inactive

[in] // outcome(item) with item = O=C(NNc1nc2c(F)cccc2n2cccc12)c1cnccn1
[out] active

[in] // outcome(item) with item = COc1c(C2CC(=O)Nc3c2cnn3Cc2ccco2)cc2c(c1OC)OCO2 (stereo not drawn)
[out] inactive

[in] // outcome(item) with item = Cc1ccc2c(C(C[N+](=O)[O-])c3cccs3)c(-c3ccccc3)[nH]c2c1 (stereo not drawn)
[out] inactive

[in] // outcome(item) with item = Nc1n[nH]c2ccc([C@@H]3Nc4ccc5[nH]ncc5c4[C@H]4[C@H]5CCC(C5)[C@H]43)cc12
[out] active

[in] // outcome(item) with item = C[C@@H]1CC[C@@H]2[C@@H]1[C@H](OC(=O)/C=C/c1ccccc1)[C@]1(c3ccccc3)C[C@@H](OC(=O)CO)[C@@]2(C)O1
[out] inactive

[in] // outcome(item) with item = CCCCCCCCCCCCC(=O)OC(c1cnco1)c1nc(C(O)CC(O)C(O)C(C)O)co1 (stereo not drawn)
[out] inactive

[in] // outcome(item) with item = O=[Se]([O-])c1ccccc1.O=[Se]([O-])c1ccccc1.[OH3+].[OH3+].[Pt+2]
[out] inactive

[in] // outcome(item) with item = Fc1cccc(COc2ccc(Nc3ncncc3C#Cc3ccccc3)cc2Cl)c1
[out] inactive

* * *

# System: BT-549 breast
# Procedure text: NCI tumour cell line growth inhibition, 48 h
I would appreciate it if you labelled entries T when TGI is 30 µM or higher, otherwise F.

[in] In plain terms: is recorded TGI at least 30 µM for Oc1ccccc1/C=N/Nc1ccc2ccccc2n1 ?
[out] T

[in] In plain terms: is recorded TGI at least 30 µM for COc1ccc2c(c1)c1c(n2CCN2CCOCC2)-c2ccccc2CC1 ?
[out] T

[in] In plain terms: is recorded TGI at least 30 µM for O=c1c2ccccc2[nH]c(=S)n1-c1ccc(N=Nc2cccc3c(O)cccc23)cc1 ?
[out] T

[in] In plain terms: is recorded TGI at least 30 µM for COc1ccc(Nc2c(C#N)c3n(c4ccccc24)c2ccccc2[n+]3C)cc1OC ?
[out] T

[in] In plain terms: is recorded TGI at least 30 µM for CCOC(=O)c1cc(C2(O)CCN(Cc3ccccc3)C2=O)c(-c2cc(C)no2)[nH]1 (stereo unspecified) ?
[out] T

[in] In plain terms: is recorded TGI at least 30 µM for NC(N)=N/N=C(/c1ccccc1)c1ccc(F)cc1 ?
[out] F

[in] In plain terms: is recorded TGI at least 30 µM for CC(=O)c1ccc(Nc2cc(-c3ccccc3)nc3c(O)cccc23)cc1 ?
[out] T

[in] In plain terms: is recorded TGI at least 30 µM for N#Cc1c(-c2cccs2)c2c(=S)[nH]c(=S)[nH]c2[nH]c1=S ?
[out] T

[in] In plain terms: is recorded TGI at least 30 µM for Cc1nn(-c2ccc(F)cc2)c2ncnc(Nc3ccc(NC(=O)Nc4ccc(Cl)c(C(F)(F)F)c4)cc3)c12 ?
[out] F

[in] In plain terms: is recorded TGI at least 30 µM for COc1cc(C(=O)NC2c3ccccc3-c3ccccc32)c(N)cc1OCc1ccccc1 ?
[out] T

[in] In plain terms: is recorded TGI at least 30 µM for Cc1ccc2c(C(C[N+](=O)[O-])c3cccs3)c(-c3ccccc3)[nH]c2c1 (stereo unspecified) ?
[out] F

[in] In plain terms: is recorded TGI at least 30 µM for O=c1[nH]c2nc3ccccc3c(=O)n2/c1=C/c1ccc(O)cc1 ?
[out] T

[in] In plain terms: is recorded TGI at least 30 µM for Cc1ccc2c(c1)nc(N)n[n+]2[O-] ?
[out] T

[in] In plain terms: is recorded TGI at least 30 µM for CSc1nc(SC)c2c(CN=[N+]=[N-])c(Br)n(Cc3ccccc3)c2n1 ?
[out] T

[in] In plain terms: is recorded TGI at least 30 µM for Cc1ccc(S(=O)(=O)N2CCN3C(=O)c4ccccc4C32c2ccc(F)cc2)cc1 (stereo unspecified) ?
[out] T

[in] In plain terms: is recorded TGI at least 30 µM for COc1ccc(-c2c(C#N)c(N)n(C3OC(CO)C(O)C(O)C3O)c(=S)c2C#N)cc1 (stereo unspecified) ?
[out] T

[in] In plain terms: is recorded TGI at least 30 µM for O=C(Cc1nc2ccc(C(=O)c3ccccc3)cc2[nH]c1=O)C(=O)Nc1ccc(Br)cc1 ?
[out] T

[in] In plain terms: is recorded TGI at least 30 µM for COC(=O)C(=O)CC(=O)CCn1ncc(Cl)c(Cl)c1=O ?
[out] F

[in] In plain terms: is recorded TGI at least 30 µM for Cc1cn(C2CC(N)C(CN)O2)c(=O)[nH]c1=O (stereo unspecified) ?
[out] T

[in] In plain terms: is recorded TGI at least 30 µM for O=C1CC(c2ccco2)C2(C(=O)NC(=O)NC2=O)C(c2ccco2)C1 (stereo unspecified) ?
[out] T

[in] In plain terms: is recorded TGI at least 30 µM for Cc1c(/C=N\NC(=S)N2CCN(C(=S)N/N=C\c3c(C)n(C)n(-c4ccccc4)c3=O)CC2)c(=O)n(-c2ccccc2)n1C ?
[out] T

[in] In plain terms: is recorded TGI at least 30 µM for COC1(C(=O)N2Cc3nc(Cl)nc(N[C@H](C)c4cc(N)cc(C(F)(F)F)c4)c3C2)CCOCC1 ?
[out] F

[in] In plain terms: is recorded TGI at least 30 µM for O=C(/C=C/c1ccc(Cl)cc1)c1ccc(Cl)cc1Cl ?
[out] F

[in] In plain terms: is recorded TGI at least 30 µM for [N-]=[N+]=Nc1c(Cl)c(=O)n(-c2ccccc2)c2ccccc12 ?
[out] T

[in] In plain terms: is recorded TGI at least 30 µM for C[C@]12OC[C@H](c3ccccc3)N1C(=O)C1[C@H]2CC12SCCS2 (stereo partly specified) ?
[out] T

[in] In plain terms: is recorded TGI at least 30 µM for CC1(C)N=C(N)N=C(N)N1c1ccc(CCCCc2ccc(S(=O)(=O)F)cc2)cc1 ?
[out] F

[in] In plain terms: is recorded TGI at least 30 µM for c1sc(NC2=NCCO2)c2c1CCCC2 ?
[out] T

[in] In plain terms: is recorded TGI at least 30 µM for COc1cc(COC(=O)N[C@H](C(=O)O)C(C)(C)C)c([N+](=O)[O-])cc1OC ?
[out] T

[in] In plain terms: is recorded TGI at least 30 µM for Cc1cccc(N2C(=O)C3ON(C(C(N)=O)c4ccccc4)C(c4c5ccccc5c(Cl)c5ccccc45)C3C2=O)c1C (stereo unspecified) ?
[out] F

[in] In plain terms: is recorded TGI at least 30 µM for O=C1CC(C(O)CO)CC(=O)N1 (stereo unspecified) ?
[out] T

[in] In plain terms: is recorded TGI at least 30 µM for CCCN=C1CC(C)Nc2ccccc2N1 (stereo unspecified) ?
[out] T

[in] In plain terms: is recorded TGI at least 30 µM for COc1cc2c3c(cccc3c1)C(=O)N(CCN1CCCC1)C2=O ?
[out] F

[in] In plain terms: is recorded TGI at least 30 µM for O=C1CC(O)c2c1csc2Br (stereo unspecified) ?
[out] T

[in] In plain terms: is recorded TGI at least 30 µM for CC(=O)OCC1OC(N2C(=O)/C(=C\c3ccc(Cl)cc3)C(N)=Nc3ccccc32)C(OC(C)=O)C(OC(C)=O)C1OC(C)=O (stereo unspecified) ?
[out] T

[in] In plain terms: is recorded TGI at least 30 µM for COc1cc2oc(-c3ccc(O)cc3)c(OC3OC(C)C(O)C(O)C3O)c(=O)c2c(O)c1OC (stereo unspecified) ?
[out] T

[in] In plain terms: is recorded TGI at least 30 µM for CCOC(=O)c1cc(=C2\CCN(CC(C)CC)C2=S)/c(=C(/O)CC)[nH]1 (stereo unspecified) ?
[out] T

[in] In plain terms: is recorded TGI at least 30 µM for COc1cc2c(cc1OCCCCCOc1cc3c(cc1OC)C(=O)N1CCC[C@H]1C(=O)N3)N=C[C@@H]1CCCN1C2=O ?
[out] F

[in] In plain terms: is recorded TGI at least 30 µM for COc1ccc(-c2nn(-c3cccc(Cl)c3)cc2C2CC(c3ccccc3)=NN2C(C)=O)cc1 (stereo unspecified) ?
[out] F
